- Test system: PC-3 cells
- protocol: Cell proliferation inhibition in prostate cancer cell line, BrdU incorporation assay
- Assay type: cell-based
- test-parameters: Homo sapiens, 96 h incubation
value-type: IC50 (µM)

>>> observed_value("CN(CCOc1ccc(CC2SC(=O)NC2=O)cc1)c1ccccn1 (stereo not drawn) [Rosiglitazone, reference compound]")
100

(1) CC(=O)NC1=Nc2nc3ccccc3n2C(c2cn(-c3ccccc3)nc2-c2ccc(C)o2)N1 (stereo not drawn)
(2) Cc1ccc(-c2nn(-c3ccccc3)cc2C2NC(N)=Nc3nc4ccccc4n32)o1 (stereo not drawn)
Input: Parameter metric = IC50. Return the lower-valued option from 1 and 2 . Use the label to indicate which entry you chose.
Output: 1
(1: 27 µM, 2: 48 µM)
